experimental system: Recombinant human IL-1β (BioLegend 579404) (human, UniProt P01584 117-269)
method: cell-based or functional assay
Starred links: 1 amine or outer side, 2 acyl side, 3 side chain; linkers in the order of their positions; H or OH if unused. Non-standard residues stand in square brackets, D forms with d. No end group written: not given here. dProc3CH24Pal = (2R,3S)-3-(4-pyridylmethyl)pyrrolidine-2-carboxylic acid, O=C([C@H]1[C@@H](Cc2ccncc2)CCN1[*:1])[*:2]; ThrOBn = (2S,3R)-2-amino-3-benzyloxy-butanoic acid, C[C@@H](OCc1ccccc1)[C@H](N[*:1])C(=O)[*:2]; Phe(4-(5-CO2H-2-pyrimidyl)) = N[C@@H](Cc1ccc(-c2ncc(C(=O)O)cn2)cc1)C(=O)O; dPro(4R-(4-pyridylmethyl)) = O=C(O)[C@H]1C[C@@H](Cc2ccncc2)CN1; Trp(βS-Me,4-F) = C[C@@H](c1c[nH]c2cccc(F)c12)[C@H](N)C(=O)O; Bip(4'-COOH) = N[C@@H](Cc1ccc(-c2ccc(C(=O)O)cc2)cc1)C(=O)O; Ala(1-bicyclo(1.1.1)pentyl) = N[C@@H](CC12CC(C1)C2)C(=O)O; dPro(4R-Bzl(4-F)) = O=C(O)[C@H]1C[C@@H](Cc2ccc(F)cc2)CN1; 1Nal(3S-Me) = C[C@@H](c1cccc2ccccc12)[C@H](N)C(=O)O; Ala(morpholin-4-yl) = N[C@@H](CN1CCOCC1)C(=O)O; Ala(pyrimidin-5-yl) = N[C@@H](Cc1cncnc1)C(=O)O; Phe(4-COOH) = N[C@@H](Cc1ccc(C(=O)O)cc1)C(=O)O; Pro(cis-4-F) = O=C(O)[C@@H]1C[C@H](F)CN1; Ala(4-THP) = N[C@@H](CC1CCOCC1)C(=O)O; hTyr = N[C@@H](CCc1ccc(O)cc1)C(=O)O; cisHyp = O=C(O)[C@@H]1C[C@H](O)CN1; d(αMeD) = C[C@@](N)(CC(=O)O)C(=O)O; h4Pal = N[C@@H](CCc1ccncc1)C(=O)O; 4Pal = N[C@@H](Cc1ccncc1)C(=O)O; αMeD = C[C@](N)(CC(=O)O)C(=O)O; d(αMeS) = C[C@@](N)(CO)C(=O)O; αMeK = C[C@](N)(CCCCN)C(=O)O; Dab = NCC[C@H](N)C(=O)O; Aib = CC(C)(N)C(=O)O
Would you kindly list MRC5 IC50 for each of these binders?
State the result as a value with its unit after it.

For the binder shown here, [Bip(4'-COOH)][4Pal][Phe(4-COOH)]G[Pro(cis-4-F)][Trp(βS-Me,4-F)][Aib]SW[d(αMeD)][h4Pal]Q[Dab]G[dProc3CH24Pal] (lactam (positions not given here); also: macrolactam, ring places not given here) [SEQ ID NO: 222] , give the reported MRC5 IC50.
0.02 nM

For the binder shown here, [Bip(4'-COOH)][4Pal][Phe(4-COOH)]G[Pro(cis-4-F)][Trp(βS-Me,4-F)][Aib]SW[Aib][hTyr]Q[Dab]G[dProc3CH24Pal] (lactam (positions not given here); also: macrolactam, ring places not given here) [SEQ ID NO: 220] , give the reported MRC5 IC50.
0.039 nM

For the binder shown here, [Phe(4-(5-CO2H-2-pyrimidyl))][Ala(1-bicyclo(1.1.1)pentyl)][Phe(4-COOH)]G[Pro(cis-4-F)][Trp(βS-Me,4-F)][Aib]SW[αMeD][Ala(pyrimidin-5-yl)]Q[Dab]G[dPro(4R-(4-pyridylmethyl))] (lactam (positions not given here); also: macrolactam ring, closure sites not given here) [SEQ ID NO: 188] , give the reported MRC5 IC50.
0.02 nM

For the binder shown here, cyclo([Bip(4'-COOH)][4Pal][Phe(4-COOH)]G[Pro(cis-4-F)][1Nal(3S-Me)][Aib]SW[Aib][Ala(pyrimidin-5-yl)]Q[Dab]G[dPro(4R-Bzl(4-F))]) (ring closure inferred; not fully specified (bridges); printed as Bip4CO2H-4Pal-Phe4COOH-G-Proc4F-SbMe1Nal-Aib-S-W-Aib-PyrimAla-Q-Dab-G-dProc4Bn4F) [SEQ ID NO: 140] , give the reported MRC5 IC50.
0.033 nM

For the binder shown here, cyclo([Bip(4'-COOH)][4Pal][Phe(4-COOH)]G[cisHyp][Trp(βS-Me,4-F)][Aib]SW[d(αMeS)][Ala(4-THP)]Q[Dab]G[dPro(4R-(4-pyridylmethyl))]) (ring closure inferred; not fully specified (bridges); printed as Bip4CO2H-4Pal-Phe4COOH-G-Proc4OH-SbMeW4F-Aib-S-W-daMeS-AlaTHP4-Q-Dab-G-dProc4CH24Pal, cyclic (macrolactam)) [SEQ ID NO: 213] , give the reported MRC5 IC50.
0.021 nM

For the binder shown here, [Bip(4'-COOH)][4Pal][Phe(4-COOH)]G[cisHyp][Trp(βS-Me,4-F)][Aib]SW[Aib][Ala(pyrimidin-5-yl)]Q[Dab]G[dPro(4R-(4-pyridylmethyl))] (lactam (positions not given here); also: macrolactam ring, closure sites not given here) [SEQ ID NO: 194] , give the reported MRC5 IC50.
0.014 nM

For the binder shown here, cyclo([Bip(4'-COOH)][4Pal][Phe(4-COOH)]G[Pro(cis-4-F)][Trp(βS-Me,4-F)][Aib]TW[αMeK][Ala(pyrimidin-5-yl)]Q[Dab]G[dPro(4R-Bzl(4-F))]) (ring closure inferred; not fully specified (bridges); printed as Bip4CO2H-4Pal-Phe4COOH-G-Proc4F-SbMeW4F-Aib-T-W-aMeK-PyrimAla-Q-Dab-G-dProc4Bn4F) [SEQ ID NO: 137] , give the reported MRC5 IC50.
0.022 nM

For the binder shown here, cyclo([Bip(4'-COOH)][4Pal][Phe(4-COOH)]G[Pro(cis-4-F)][Trp(βS-Me,4-F)][Aib]EW[Aib][Ala(morpholin-4-yl)]QSG[dPro(4R-Bzl(4-F))]) (ring closure inferred) [SEQ ID NO: 124] , give the reported MRC5 IC50.
0.018 nM

For the binder shown here, cyclo([Bip(4'-COOH)][Ala(1-bicyclo(1.1.1)pentyl)][Phe(4-COOH)]G[Pro(cis-4-F)][Trp(βS-Me,4-F)][Aib]SW[αMeK][Ala(4-THP)]Q[Dab]G[dPro(4R-Bzl(4-F))]) (ring closure inferred; not fully specified (bridges); printed as Bip4CO2H-AlaPent-Phe4COOH-G-Proc4F-SbMeW4F-Aib-S-W-aMeK-AlaTHP4-Q-Dab-G-dProc4Bn4F, cyclic (macrolactam)) [SEQ ID NO: 146] , give the reported MRC5 IC50.
0.034 nM

For the binder shown here, [Bip(4'-COOH)][4Pal][Phe(4-COOH)]G[Pro(cis-4-F)][Trp(βS-Me,4-F)][Aib]SW[d(αMeD)][ThrOBn]Q[Dab]G[dProc3CH24Pal] (lactam (positions not given here); also: macrolactam, ring places not given here) [SEQ ID NO: 229] , give the reported MRC5 IC50.
0.023 nM
